// provenance: ChEMBL document CHEMBL1151788

# TEST_TARGET: Indoleamine 2,3-dioxygenase 1 (Homo sapiens)
# Sequence (P14902 whole entry): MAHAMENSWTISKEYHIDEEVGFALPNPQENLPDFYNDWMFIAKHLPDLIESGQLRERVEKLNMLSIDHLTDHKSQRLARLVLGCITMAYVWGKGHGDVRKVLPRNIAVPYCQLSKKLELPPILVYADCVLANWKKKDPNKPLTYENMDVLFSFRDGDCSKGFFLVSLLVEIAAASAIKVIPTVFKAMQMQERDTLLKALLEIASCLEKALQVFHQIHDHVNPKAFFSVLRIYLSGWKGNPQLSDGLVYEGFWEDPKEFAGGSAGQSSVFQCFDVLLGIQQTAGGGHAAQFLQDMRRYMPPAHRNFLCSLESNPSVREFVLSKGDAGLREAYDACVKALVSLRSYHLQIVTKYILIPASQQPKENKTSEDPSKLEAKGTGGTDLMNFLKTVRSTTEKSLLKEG
# TEST_NAME: Inhibition of indoleamine 2,3-dioxygenase in aerobic condition
Recorded Ki values for a group of compounds are listed next.
Supply the numeric figure in µM, leaving out any unit text.

# STRUCTURE_NOTATION, MEAS_VALUE
data = [
    ("Cn1cc(C[C@H](NC(=O)OC(C)(C)C)C(=O)NCCCCCNc2n[n+]([O-])c3ccccc3[n+]2[O-])c2ccccc21", 197),
]

Please report the measured Ki for Cn1cc(C[C@H](NC(=O)OC(C)(C)C)C(=O)NCCCCNc2nc3ccccc3[n+]([O-])n2)c2ccccc21
87.1
